- system name: nikD Asp276Asn (Streptomyces tendae, UniProt Q9X9P9, D276N)
- assay overview: Anaerobic reductive half-reaction with P2C
- Assay type: biochemical
result type: pKd
For clarity, pKd is expressed as the negative log10 of concentration in mol/L.

Ask: For the compound shown here, O=C(O)C1=NCCCC1 [P2C, piperideine-2-carboxylate] , give the reported pKd.
Reply: 3.96

====

- system name: nikD Asp276Asn (Streptomyces tendae, UniProt Q9X9P9, D276N)
- assay overview: Steady-state turnover with P2C and oxygen
result type: pKi
For clarity, pKi is expressed as the negative log10 of concentration in mol/L.

Ask: Give recorded pKi with nikD Asp276Asn (Streptomyces tendae, UniProt Q9X9P9, D276N) for the following compound: O=C(O)C1=NCCCC1 [P2C, piperideine-2-carboxylate]
Reply: 5.10

// provenance: paper PMC2764525
